# Target desc: JAK1 (aa 850-1154, catalytic domain, GST-tag) (Homo sapiens, UniProt P23458)
# Construct: JAK1 (aa 850-1154) and TYK2 (aa 871-1187) are expressed with an N-terminally fused GST-tag; GST (N); purchased Carna Biosciences, Inc; host or cells: baculovirus expression system
# Sequence (P23458 850-1154): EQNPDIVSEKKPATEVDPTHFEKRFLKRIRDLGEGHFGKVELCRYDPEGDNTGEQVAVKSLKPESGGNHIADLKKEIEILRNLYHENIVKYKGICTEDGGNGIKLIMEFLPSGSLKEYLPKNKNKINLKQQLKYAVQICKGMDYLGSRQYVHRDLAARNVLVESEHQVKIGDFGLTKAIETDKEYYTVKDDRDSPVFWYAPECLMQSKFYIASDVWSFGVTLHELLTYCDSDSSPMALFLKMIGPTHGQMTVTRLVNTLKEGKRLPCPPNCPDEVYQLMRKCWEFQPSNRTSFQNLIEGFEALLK
# Method notes: JAK kinase assay (HTRF, phosphorylation of TK substrate-biotin), JAK1
# Format: biochemical
# Measurement context: ATP at Km (7 μM); read-out: JAK1 kinase inhibitory activity (EC50 indicator)
pEC50: −log10 of the molar value.
Readout name: pEC50

Consider the reported pEC50 for these compounds:
Request body: readout pEC50, system JAK1 (aa 850-1154, catalytic domain, GST-tag) (Homo sapiens, UniProt P23458), query O=C(Cc1ccncc1)N1CCN(c2ncnc3[nH]ccc23)CC12CC2 [Example 21] . Return the value.
> 7.00

Request body: readout pEC50, system JAK1 (aa 850-1154, catalytic domain, GST-tag) (Homo sapiens, UniProt P23458), query N#CCN1CCCC(C(=O)N2CCN(c3ncnc4[nH]ccc34)CC23CC3)C1 (centres unmarked) [Example 94] . Return the value.
6.30 to 7.00

Request body: readout pEC50, system JAK1 (aa 850-1154, catalytic domain, GST-tag) (Homo sapiens, UniProt P23458), query CC(C)S(=O)(=O)c1ccc(C(=O)N2C3CCC2CN(c2ncnc4[nH]ccc24)C3)cc1 [Example 202] . Return the value.
6.30 to 7.00

Request body: readout pEC50, system JAK1 (aa 850-1154, catalytic domain, GST-tag) (Homo sapiens, UniProt P23458), query N#CCCC(=O)N1CCN(c2ccnc3[nH]ccc23)CC12CC2 [Example 116] . Return the value.
6.30 to 7.00

Request body: readout pEC50, system JAK1 (aa 850-1154, catalytic domain, GST-tag) (Homo sapiens, UniProt P23458), query O=C(c1cc2c(s1)CCC2)N1CCN(c2ncnc3[nH]ccc23)CC12CC2 [Example 61] . Return the value.
> 7.00

Continuing:
Request body: readout pEC50, system JAK1 (aa 850-1154, catalytic domain, GST-tag) (Homo sapiens, UniProt P23458), query N#Cc1cccc(CC(=O)N2[C@@H]3CC[C@@H]2CN(c2ncnc4[nH]ccc24)C3)c1 [Example 179] . Return the value.
6.30 to 7.00

Request body: readout pEC50, system JAK1 (aa 850-1154, catalytic domain, GST-tag) (Homo sapiens, UniProt P23458), query CC(=O)N1CCC(C(=O)N2CCN(c3ncnc4[nH]ccc34)CC23CC3)CC1 [Example 43] . Return the value.
6.30 to 7.00

Request body: readout pEC50, system JAK1 (aa 850-1154, catalytic domain, GST-tag) (Homo sapiens, UniProt P23458), query NS(=O)(=O)CCCC(=O)N1CCN(c2ncnc3[nH]ccc23)CC12CC2 [Example 143] . Return the value.
> 7.00
